Entries annotated with measured pEC50
# STUDY SYSTEM: F508del in NIH 3T3 cells (Homo sapiens, UniProt P13569, DEL508-508)
# Construct: expressed in transfected cells
# Sequence (P13569 with tags, fused parts or gaps DEL508-508): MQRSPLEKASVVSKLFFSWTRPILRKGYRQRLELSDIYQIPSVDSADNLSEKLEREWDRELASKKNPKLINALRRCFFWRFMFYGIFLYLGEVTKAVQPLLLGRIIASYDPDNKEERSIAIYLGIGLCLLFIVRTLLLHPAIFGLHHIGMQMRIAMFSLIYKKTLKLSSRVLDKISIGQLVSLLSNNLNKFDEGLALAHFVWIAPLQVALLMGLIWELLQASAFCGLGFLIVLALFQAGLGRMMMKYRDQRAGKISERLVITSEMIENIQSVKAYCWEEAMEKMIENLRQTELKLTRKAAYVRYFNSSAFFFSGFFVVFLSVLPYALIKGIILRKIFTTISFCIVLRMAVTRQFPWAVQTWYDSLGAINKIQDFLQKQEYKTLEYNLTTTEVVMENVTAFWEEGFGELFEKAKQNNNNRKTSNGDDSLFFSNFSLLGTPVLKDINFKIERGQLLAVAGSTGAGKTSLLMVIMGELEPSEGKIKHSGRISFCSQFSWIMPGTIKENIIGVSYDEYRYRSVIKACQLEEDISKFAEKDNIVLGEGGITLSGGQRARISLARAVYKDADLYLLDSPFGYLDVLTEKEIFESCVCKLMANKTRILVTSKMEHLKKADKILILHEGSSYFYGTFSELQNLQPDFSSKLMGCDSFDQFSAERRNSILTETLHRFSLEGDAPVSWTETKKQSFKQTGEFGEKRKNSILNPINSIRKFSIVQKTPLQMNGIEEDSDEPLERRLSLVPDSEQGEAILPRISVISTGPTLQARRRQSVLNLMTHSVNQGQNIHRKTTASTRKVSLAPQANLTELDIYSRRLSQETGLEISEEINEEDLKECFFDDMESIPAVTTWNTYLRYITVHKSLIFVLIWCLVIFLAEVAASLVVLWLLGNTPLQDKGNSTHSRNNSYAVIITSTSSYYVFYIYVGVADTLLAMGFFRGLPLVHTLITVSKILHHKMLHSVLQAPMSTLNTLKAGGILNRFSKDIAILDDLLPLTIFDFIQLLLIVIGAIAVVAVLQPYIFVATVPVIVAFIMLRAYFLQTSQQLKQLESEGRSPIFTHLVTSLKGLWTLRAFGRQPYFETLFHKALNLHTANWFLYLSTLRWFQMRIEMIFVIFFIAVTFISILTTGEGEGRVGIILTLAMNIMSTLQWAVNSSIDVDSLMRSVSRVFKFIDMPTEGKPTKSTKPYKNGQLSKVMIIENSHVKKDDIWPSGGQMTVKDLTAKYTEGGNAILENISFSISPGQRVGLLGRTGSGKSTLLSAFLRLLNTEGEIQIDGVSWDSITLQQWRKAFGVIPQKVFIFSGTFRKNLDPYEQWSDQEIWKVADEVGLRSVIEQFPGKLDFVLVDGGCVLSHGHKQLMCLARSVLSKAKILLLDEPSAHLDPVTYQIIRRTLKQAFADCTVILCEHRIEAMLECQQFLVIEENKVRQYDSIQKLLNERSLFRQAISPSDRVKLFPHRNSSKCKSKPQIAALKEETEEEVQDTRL
# METHOD: 3T3 assay: membrane potential optical assay for F508del correction
# Type: cell-based
# MEASUREMENT SETUP: NIH 3T3 cells, F508del; read-out: 3T3 EC50
pEC50: −log10 of the molar value.

Solved entries:
# INPUT SMILES, VAL
rows = [
    ("CCCc1sc(NS(=O)(=O)c2ccccc2)nc1-c1cc(C)ccc1C", "> 6.00"),
    ("Cc1cccc(-c2cn(-c3cccc(Cl)c3)nc2NS(=O)(=O)c2ccccc2)c1", "5.52 to 6.00"),
    ("Cc1cc(C)c(-n2nc(NS(=O)(=O)c3ccccc3)cc2-c2ccccc2Cl)c(C)c1", "> 6.00"),
    ("CCCc1sc(NS(=O)(=O)c2ccccc2)nc1-c1ccc(C)cc1C", "> 6.00"),
]

# context switch: different compound, same pEC50
Entry CC(C)(C)CCNC(=O)c1sc(NS(=O)(=O)c2ccccc2)nc1-c1ccccc1 needs its pEC50 filled in; supply it.
4.52 to 5.52

###

# STUDY SYSTEM: F508del in NIH 3T3 cells (Homo sapiens, UniProt P13569, DEL508-508)
# Construct: expressed in transfected cells
# METHOD: 3T3 assay: membrane potential optical assay for F508del correction
# Assay type: cell-based
# MEASUREMENT SETUP: NIH 3T3 cells, F508del; read-out: 3T3 EC50
Entries annotated with measured EC50

Solved entries:
# MOLECULE, STUDY SYSTEM, EC50
records = [
    ("Cc1cc(C)c(-n2cc(-c3ccccc3)c(NS(=O)(=O)c3ccccc3)n2)c(C)c1", "F508del in NIH 3T3 cells (Homo sapiens, UniProt P13569, DEL508-508)", "< 1000 nM"),
    ("O=S(=O)(Nc1onc(-c2ccc(Cl)cc2)c1-c1ccc(Cl)cc1)c1ccccc1", "F508del in NIH 3T3 cells (Homo sapiens, UniProt P13569, DEL508-508)", "1000 to 3000 nM"),
    ("O=S(=O)(Nc1cc(-c2ccccc2)cc(Oc2ccccc2)n1)c1ccccc1", "F508del in NIH 3T3 cells (Homo sapiens, UniProt P13569, DEL508-508)", "< 1000 nM"),
    ("Cc1cc(C)c(-n2nc(NS(=O)(=O)c3ccccc3)cc2Br)c(C)c1", "F508del in NIH 3T3 cells (Homo sapiens, UniProt P13569, DEL508-508)", "1000 to 3000 nM"),
    ("COc1ccc(-c2cn(-c3cccc(Cl)c3)nc2NS(=O)(=O)c2ccccc2)cc1", "F508del in NIH 3T3 cells (Homo sapiens, UniProt P13569, DEL508-508)", "< 1000 nM"),
    ("COc1ccc(Cl)cc1Nc1nc(-c2sc(NS(=O)(=O)c3ccccc3)nc2C)cs1", "F508del in NIH 3T3 cells (Homo sapiens, UniProt P13569, DEL508-508)", "1000 to 3000 nM"),
    ("C=C(C)c1cc(NS(=O)(=O)c2ccccc2)nn1-c1c(C)cc(C)cc1C", "F508del in NIH 3T3 cells (Homo sapiens, UniProt P13569, DEL508-508)", "1000 to 3000 nM"),
]

Specify EC50 for O=S(=O)(NC1=NC(c2ccccc2)C=C(c2ccccc2)S1)c1ccccc1 (centres unmarked) , system F508del in NIH 3T3 cells (Homo sapiens, UniProt P13569, DEL508-508).
1000 to 3000 nM

###

Entries annotated with measured Emax
# STUDY SYSTEM: F508del in NIH 3T3 cells (Homo sapiens, UniProt P13569, DEL508-508)
# Construct: expressed in transfected cells
# METHOD: 3T3 assay: membrane potential optical assay for F508del correction
# Type: cell-based
# MEASUREMENT SETUP: NIH3T3; NIH 3T3 cells, F508del; read-out: 3T3 Max Activity (%)

Solved entries:
# COMPOUND, RECORDED ENDPOINT, VAL
measured = [
    ("Cc1cc(C)c(-n2nc(NS(=O)(=O)c3ccccc3)cc2-c2cccc(Cl)c2)c(C)c1", "Emax", "> 60%"),
    ("Cc1ccccc1-c1cn(-c2cccc(Cl)c2)nc1NS(=O)(=O)c1ccccc1", "Emax", "< 30%"),
    ("CC(C)Cc1cn(-c2ccccc2)nc1NS(=O)(=O)c1ccccc1", "Emax", "< 30%"),
    ("COc1ccc(-c2cc(NS(=O)(=O)c3ccccc3)nn2-c2c(C)cc(C)cc2C)cc1", "Emax", "30 to 60%"),
    ("O=C(NCc1ccccc1)c1sc(NS(=O)(=O)c2ccccc2)nc1-c1ccccc1", "Emax", "30 to 60%"),
    ("O=S(=O)(Nc1cc(Oc2ccccc2)cc(Oc2ccccc2)n1)c1ccccc1", "Emax", "> 60%"),
]

Entry O=c1c(NS(=O)(=O)c2ccccc2)nc(-c2ccccc2)cn1-c1ccccc1 needs its Emax filled in; supply it.
30 to 60%

Entry O=S(=O)(Nc1cc(Cc2ccccc2)n(-c2ccccc2)n1)c1ccccc1 needs its Emax filled in; supply it.
< 30%

Entry Cc1sc(NS(=O)(=O)c2ccccc2)nc1-c1ccc2c(c1)OCCO2 needs its Emax filled in; supply it.
30 to 60%

Entry Cc1cc(C)c(-n2nc(NS(=O)(=O)c3ccccc3)cc2C2CCCCC2)c(C)c1 needs its Emax filled in; supply it.
> 60%

Entry O=S(=O)(Nc1nn(-c2cccc(Cl)c2)cc1C1CCCCC1)c1ccccc1 needs its Emax filled in; supply it.
< 30%

Entry Nc1cccc(S(=O)(=O)Nc2nn(-c3ccccc3)cc2Cc2ccccc2)c1 needs its Emax filled in; supply it.
30 to 60%

Entry Cc1cc(NS(=O)(=O)c2ccccc2)nc(-c2ccc(C)c(C)c2)c1 needs its Emax filled in; supply it.
> 60%

Entry CCOC(=O)C1=C(c2ccccc2)N=C(NS(=O)(=O)c2ccccc2)SC1c1ccccc1 (stereo not drawn) needs its Emax filled in; supply it.
> 60%

Entry Cc1sc(NS(=O)(=O)c2ccccc2)nc1-c1ccncc1 needs its Emax filled in; supply it.
< 30%

Entry O=S(=O)(Nc1nn(Cc2ccccc2)cc1-c1cccc(Cl)c1)c1ccccc1 needs its Emax filled in; supply it.
< 30%

Entry O=C(Nc1ccccc1)c1sc(NS(=O)(=O)c2ccccc2)nc1-c1ccccc1 needs its Emax filled in; supply it.
< 30%

Entry Cc1ccc(-c2nc(NS(=O)(=O)c3ccccc3)cc(C)c2C)c(C)c1 needs its Emax filled in; supply it.
> 60%

###

# STUDY SYSTEM: F508del in NIH 3T3 cells (Homo sapiens, UniProt P13569, DEL508-508)
# Construct: expressed in transfected cells
# METHOD: 3T3 assay: membrane potential optical assay for F508del correction
# Assay type: cell-based
# MEASUREMENT SETUP: NIH3T3; NIH 3T3 cells, F508del; read-out: 3T3 Max Activity (%)
# Text: 1. Membrane Potential Optical Methods for Assaying F508del Modulation Properties of Compounds The assay utilizes fluorescent voltage sensing dyes to measure changes in membrane potential using a fluorescent plate reader (e.g., FLTPR III, Molecular Devices, Inc.) as a readout for increase in functional F508del in NIH 3T3 cells. […]
Entries annotated with measured Emax

Solved entries:
# INPUT SMILES, STUDY SYSTEM, Emax
records = [
    ("CC(C)(C)NC(=O)c1sc(NS(=O)(=O)c2ccccc2)nc1-c1ccccc1", "F508del in NIH 3T3 cells (Homo sapiens, UniProt P13569, DEL508-508)", "< 30%"),
    ("Cc1cccc(-c2cn(Cc3ccccc3)nc2NS(=O)(=O)c2ccccc2)c1", "F508del in NIH 3T3 cells (Homo sapiens, UniProt P13569, DEL508-508)", "< 30%"),
    ("CCc1sc(NS(=O)(=O)c2ccccc2)nc1-c1ccccc1", "F508del in NIH 3T3 cells (Homo sapiens, UniProt P13569, DEL508-508)", "> 60%"),
    ("CC(C)Oc1nc(NS(=O)(=O)c2ccccc2)nc(-c2ccccc2)n1", "F508del in NIH 3T3 cells (Homo sapiens, UniProt P13569, DEL508-508)", "30 to 60%"),
    ("CCCc1sc(NS(=O)(=O)c2ccccc2)nc1-c1cc(C)ccc1C", "F508del in NIH 3T3 cells (Homo sapiens, UniProt P13569, DEL508-508)", "> 60%"),
    ("Cc1cc(C)c(-n2nc(NS(=O)(=O)c3ccccc3)cc2-c2ccccc2)c(C)c1", "F508del in NIH 3T3 cells (Homo sapiens, UniProt P13569, DEL508-508)", "> 60%"),
    ("CC(C)c1sc(NS(=O)(=O)c2ccccc2)nc1-c1ccccc1", "F508del in NIH 3T3 cells (Homo sapiens, UniProt P13569, DEL508-508)", "> 60%"),
]

# context switch: different compound, same Emax
Specify Emax for Cc1ccc(-c2cn(Cc3ccccc3)nc2NS(=O)(=O)c2ccccc2)cc1 , system F508del in NIH 3T3 cells (Homo sapiens, UniProt P13569, DEL508-508).
30 to 60%

These measurements were taken from patent US20230373939A1.
